Target: Type II NOS (RAW macrophage cell cytosol) (Mus musculus, UniProt P29477)
Construct: cytosolic preparations from RAW 264.7 cells; endogenous in cells
Assay: [3H]-Arginine to [3H]-Citrulline conversion, RAW cell cytosol (Type II NOS)
Details: LPS induced, read-out: Inhibition of [3H]-Citrulline Formation IC50, RAW Cell cytosol
MEASURED ENDPOINT: IC50 (µM)

COMPOUND | IC50 (µM)
C/C(=C\[C@H](N)CO)CNC(=N)N | 30
C/C(=C\[C@H](N)CO)CNC(=N)N[N+](=O)[O-] | 40
N=C(N)NC/C=C/[C@H](N)CO | 100
CNC(=N)NC/C=C/[C@H]1COC(C)(C)N1C(=O)OC(C)(C)C | 100

P. CNC(=N)NC/C(C)=C/[C@H](N)CO
Q. C/C(=C\[C@H]1COC(C)(C)N1C(=O)OC(C)(C)C)CNC(=N)N
R. CC(C)(C)OC(=O)N1[C@@H](/C=C/CNC(=N)N)COC1(C)C
Exam item: Arrange items by their IC50 values in increasing order. A complete answer lists every label in the requested sequence.
Marked response: P, R, Q
(P: 20 µM, R: 40 µM, Q: 100 µM)
